Cited source: patent US20180099931A1

Measured pEC50 accompanies every entry in the list below.
- target: F508delCFTR (Homo sapiens, UniProt P13569, DEL508-508)
- Construct: expressed in transfected cells; host or cells: CFBE41o- human lung-derived epithelial cells (CFBE4lo-F508delCFTR-HRP), doxycycline-inducible
- Sequence (P13569 with tags, fused parts or gaps DEL508-508): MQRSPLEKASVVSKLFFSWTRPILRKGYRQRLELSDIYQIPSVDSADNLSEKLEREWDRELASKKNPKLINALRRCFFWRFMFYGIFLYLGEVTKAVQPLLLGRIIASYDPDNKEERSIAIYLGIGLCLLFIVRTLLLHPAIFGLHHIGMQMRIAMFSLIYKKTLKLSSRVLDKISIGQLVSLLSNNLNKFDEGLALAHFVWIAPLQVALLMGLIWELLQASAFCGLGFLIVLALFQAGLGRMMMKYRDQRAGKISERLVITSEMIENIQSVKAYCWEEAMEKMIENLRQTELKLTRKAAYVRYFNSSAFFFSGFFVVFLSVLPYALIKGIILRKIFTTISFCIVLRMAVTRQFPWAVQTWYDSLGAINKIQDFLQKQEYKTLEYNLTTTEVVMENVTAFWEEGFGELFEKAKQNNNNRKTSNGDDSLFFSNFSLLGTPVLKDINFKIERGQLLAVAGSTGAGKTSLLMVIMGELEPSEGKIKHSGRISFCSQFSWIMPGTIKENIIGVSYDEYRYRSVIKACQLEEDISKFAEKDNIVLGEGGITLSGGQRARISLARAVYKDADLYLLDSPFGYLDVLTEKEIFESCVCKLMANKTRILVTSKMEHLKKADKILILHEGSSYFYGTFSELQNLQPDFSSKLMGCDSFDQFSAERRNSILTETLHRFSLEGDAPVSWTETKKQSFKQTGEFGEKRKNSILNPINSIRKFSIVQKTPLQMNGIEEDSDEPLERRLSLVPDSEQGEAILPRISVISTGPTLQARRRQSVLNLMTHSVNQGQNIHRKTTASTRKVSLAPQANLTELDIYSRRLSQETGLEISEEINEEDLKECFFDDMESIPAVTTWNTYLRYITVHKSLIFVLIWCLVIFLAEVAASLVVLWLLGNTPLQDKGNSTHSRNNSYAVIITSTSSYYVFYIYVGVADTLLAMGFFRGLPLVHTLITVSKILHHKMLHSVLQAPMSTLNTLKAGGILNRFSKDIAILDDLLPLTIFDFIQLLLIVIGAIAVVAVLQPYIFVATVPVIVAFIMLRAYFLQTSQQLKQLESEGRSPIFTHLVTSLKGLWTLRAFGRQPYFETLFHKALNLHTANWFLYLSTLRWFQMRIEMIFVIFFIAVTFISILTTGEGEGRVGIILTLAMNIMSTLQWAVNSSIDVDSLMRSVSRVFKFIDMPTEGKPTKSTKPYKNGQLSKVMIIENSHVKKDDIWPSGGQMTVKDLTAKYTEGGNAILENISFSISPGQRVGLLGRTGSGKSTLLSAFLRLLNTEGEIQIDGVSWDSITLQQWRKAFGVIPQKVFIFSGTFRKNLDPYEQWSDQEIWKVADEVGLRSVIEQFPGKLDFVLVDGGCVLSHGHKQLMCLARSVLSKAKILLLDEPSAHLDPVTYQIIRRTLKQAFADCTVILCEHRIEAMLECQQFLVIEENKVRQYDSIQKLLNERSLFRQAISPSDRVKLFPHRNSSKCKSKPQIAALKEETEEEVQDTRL
- experiment: Cell Surface Expression-Horse Radish Peroxidase (CSE-HRP) Assay
- Format: cell-based
- cond: test compound without co-corrector; read-out: EC50 (without co-corrector)
pEC50: −log10 of the molar value.

compound	pEC50
COc1ccc(C(F)(F)F)cc1CN[C@H]1[C@H](C(C)(C)C)[C@@H](C(=O)O)N(C(=O)C(Oc2ccc(Cl)cc2)C(C)C)[C@H]1c1ccccc1 (stereo partly drawn)	> 6.00
COc1ccc(CN[C@@H]2[C@@H](C(C)(C)C)[C@H](C(=O)O)N(C(=O)C3CCCCC3)[C@@H]2c2ccccc2)cn1 (racemic)	< 5.00
COc1ccc(C(C)(C)C)cc1CN[C@H]1[C@H](C(C)(C)C)[C@@H](C(=O)O)N(C(=O)[C@@H]2[C@H](C(F)(F)F)[C@@H]3CC[C@H]2O3)[C@H]1c1cccnc1N(C)C (relative stereo)	5.00 to 6.00
